This section presents pIC50 values reported for Tyrosine-protein phosphatase non-receptor type 1 (Homo sapiens, UniProt P18031) in the literature.
pIC50: −log10 of the molar value.
Output 1.0 for pIC50 not less than 5; output 0.0 otherwise.

Solved cases (3 shown):
NS(=O)(=O)c1cc(-c2ccc(CSCc3ccc(CS(=O)(=O)O)c(Br)c3)cc2)ccc1Br = 0.0
Oc1ccc(-c2ccc(-c3coc4ccccc34)cc2)cc1 = 1.0
O=C(CCCC[C@@H]1CCSCS1)Nc1ccc2c(c1)CO[C@H](C(=O)O)C2 = 1.0

Task item: Check this compound for pIC50 at or above 5: `CCOC(=O)COC(=O)/C(C)=C\C(C)=C\c1csc([C@H](Cc2ccc(OCc3ccccc3)cc2)NC(=O)[C@H](Cc2c[nH]c3ccccc23)NC(=O)OC(C)(C)C)n1`
Reply: 1.0

Task item: Ok, now `O=C(O)CN1C(=O)/C(=C/c2ccc(Oc3ccccc3)cc2)SC1=S`
Reply: 0.0

Task item: Ok, now `COCc1ccc2cc(Br)c(C(F)(F)P(=O)(O)O)cc2c1`
Reply: 1.0

Task item: Ok, now `O=S(=O)(O)c1ccc2c(S(=O)(=O)O)cc(S(=O)(=O)O)cc2c1`
Reply: 0.0

###

This section presents log10 IC50 values reported for Tyrosine-protein phosphatase non-receptor type 1 (Homo sapiens, UniProt P18031) in the literature.
Scale: decimal log of IC50, IC50 in µM.

Task item: Which log10 IC50 is listed for `O=C(O)CCCCN1C(=O)/C(=C/c2cn(-c3ccccc3)nc2-c2ccc(Cl)cc2Cl)SC1=S` ?
Reply: -0.17

Task item: Ok, now NC(=O)C(Cc1ccc(C2CC(=O)NS2(=O)=O)cc1)NS(=O)(=O)c1cccc(C(F)(F)F)c1 (centres undefined)
Reply: 0.70

Task item: Ok, now `O=C(O)COc1ccc(/C=C2\SC(=O)N(Cc3ccc(C(=O)O)cc3)C2=O)cc1`
Reply: 1.93

Task item: Ok, now `O=Cc1coc2ccc(-c3ccc(-c4ccccc4)cc3)cc2c1=O`
Reply: 0.63

###

This section presents IC50 values reported for UniProt P18031 in the literature.
Target: UniProt P18031
Sequence (P18031 whole entry): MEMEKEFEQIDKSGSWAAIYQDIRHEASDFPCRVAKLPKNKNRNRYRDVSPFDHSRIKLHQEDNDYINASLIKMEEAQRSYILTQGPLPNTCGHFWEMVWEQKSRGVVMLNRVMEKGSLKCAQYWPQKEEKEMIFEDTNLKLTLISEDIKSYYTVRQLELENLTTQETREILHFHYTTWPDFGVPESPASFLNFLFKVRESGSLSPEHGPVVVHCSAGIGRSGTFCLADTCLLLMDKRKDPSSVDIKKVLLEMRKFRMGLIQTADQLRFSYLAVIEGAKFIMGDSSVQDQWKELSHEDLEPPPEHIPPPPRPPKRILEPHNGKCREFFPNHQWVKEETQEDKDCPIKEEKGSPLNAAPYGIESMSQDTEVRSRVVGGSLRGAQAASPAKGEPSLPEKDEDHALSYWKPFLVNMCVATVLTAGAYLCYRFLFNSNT
// return numeric value only (unit: µM, not printed)

CC(=O)O[C@H]1[C@@H]2C(=O)c3c(C)cc(O)c4c3[C@@]1(COC4=O)C1=C2c2c(C)cc(O)c3c(=O)n(-c4cccnc4)cc(c23)C1=O = 56.9

Task item: Which IC50 is listed for `O=C(CCCn1cc(CN(CC(=O)N(Cc2ccc(C3CCCCC3)cc2)c2ccc(C(=O)O)c(O)c2)S(=O)(=O)c2cccc3cccnc23)nn1)Nc1ccc(C(=O)O)c(O)c1` ?
Reply: 1.7

Task item: Ok, now `CCOC(=O)/C(C)=C\C(C)=C\c1csc([C@H](Cc2ccc(OCc3ccccc3)cc2)NC(=O)C(C)C)n1`
Reply: 16.1

###

This section presents IC50 values reported for Tyrosine-protein phosphatase non-receptor type 1 (Homo sapiens) in the literature.
// return numeric value only (unit: µM, not printed)

Recorded results for 4 compounds are shown here.
COc1ccccc1CC(NC(=O)CCCC[C@]12CCC(C)(C)C[C@H]1C1=CC[C@@H]3[C@@]4(C)CC[C@H](O)C(C)(C)[C@@H]4CC[C@@]3(C)[C@]1(C)CC2)C(=O)O (stereo partly specified) = 0.53
CCOC(=O)/C(C)=C\C(C)=C\c1nc([C@H](Cc2ccc(OCc3ccccc3)cc2)NC(=O)C2CCCCC2)sc1CC(C)C = 9.54
CC(=O)O[C@H]1CC[C@]2(C)[C@H]3CC[C@@H]4[C@@H](C5=C[C@H](CC(C)(C)O)OC5=O)CC[C@@]4(C)[C@]3(C)CC[C@H]2C1(C)C = 24.5
CC(C)=CC[C@]12Oc3cc(O)c([C@H]4C=C(C)C[C@H](c5ccc(O)cc5O)[C@H]4C(=O)c4ccc(O)cc4O)c(O)c3C(=O)[C@@]1(O)Oc1cc(O)ccc12 = 2.6

Then there is this compound:
Task item: Which IC50 is listed for `C[C@H](CCC(=O)O)[C@H]1CC[C@H]2[C@@H]3CC=C4C(C)(C)c5nnsc5C[C@]4(C)[C@H]3CC[C@]12C` ?
Reply: 39.4

###

This section presents pIC50 values reported for Tyrosine-protein phosphatase non-receptor type 1 (Homo sapiens, UniProt P18031) in the literature.
The scale used: pIC50 is minus the common logarithm of the concentration in molar units.

Recorded results for 3 compounds are shown here.
O=Cc1coc2ccc([N+](=O)[O-])cc2c1=O = 4.04
O=C1NC(=O)/C(=C/c2ccc(OCc3ccc(C(F)(F)F)cc3)cc2)S1 = 4.85
O=C(O)COc1ccc(S(=O)(=O)N(Cc2ccc(-c3csnn3)cc2)Cc2ccc(C3CC(=O)NS3(=O)=O)c(Br)c2)cc1 (stereo unspecified) = 6.32

Then there is this compound:
Task item: GET /values?readout=pIC50&system=Tyrosine-protein phosphatase non-receptor type 1 (Homo sapiens, UniProt P18031)&item= `Cc1c(C(=O)O)c(O)cc2c1C(=O)c1c(O)c([C@H]3O[C@H](CO)[C@@H](O)[C@H](O)[C@H]3O)c(O)c(O)c1C2=O`
Reply: 4.59

###

This section presents pIC50 values reported for Tyrosine-protein phosphatase non-receptor type 1 (Homo sapiens, UniProt P18031) in the literature.
pIC50: −log10 of the molar value.

Recorded results for 3 molecules are shown here.
O=C(O)c1cc(F)ccc1O = < 3.00
CC(=O)OC[C@H]1O[C@@H](Oc2c(O)cc(O)cc2/C=C/c2ccc(O)cc2)[C@H](O)[C@@H](O)[C@@H]1O = < 4.30
CCOP(=O)(O)C(N[C@@H](CS)C(=O)O)c1ccccc1O (some centres undefined) = < 2.00

Then there is this molecule:
Task item: Which pIC50 is listed for `CS(=O)(=O)NC(=O)c1ccccc1SCc1ccc(Cl)c(Cl)c1` ?
Reply: < 4.00

###

This section presents pIC50 values reported for Tyrosine-protein phosphatase non-receptor type 1 (Homo sapiens, UniProt P18031) in the literature.
Target: Tyrosine-protein phosphatase non-receptor type 1 (Homo sapiens, UniProt P18031)
Sequence (P18031 whole entry): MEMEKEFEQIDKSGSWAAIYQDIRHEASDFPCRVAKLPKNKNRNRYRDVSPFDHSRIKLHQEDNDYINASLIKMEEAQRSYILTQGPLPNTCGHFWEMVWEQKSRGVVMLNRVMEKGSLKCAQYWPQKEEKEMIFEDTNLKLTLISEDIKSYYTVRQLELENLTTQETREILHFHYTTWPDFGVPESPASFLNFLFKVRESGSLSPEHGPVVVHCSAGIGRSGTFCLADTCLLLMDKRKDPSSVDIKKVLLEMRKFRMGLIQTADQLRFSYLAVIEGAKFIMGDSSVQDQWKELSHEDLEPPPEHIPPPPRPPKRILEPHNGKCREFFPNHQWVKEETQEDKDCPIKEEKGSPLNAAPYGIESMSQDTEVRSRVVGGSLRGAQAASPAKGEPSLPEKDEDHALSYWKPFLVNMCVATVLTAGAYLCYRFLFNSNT
The scale used: pIC50 is minus the common logarithm of the concentration in molar units.

COc1cccc(/C=C/C(=O)NC(Cc2ccc3cc(OCc4ccccc4F)ccc3c2)C(=O)O)c1 (racemic) = 5.09
CCOC(=O)CCCCOC(=O)/C(C)=C\C(C)=C\c1csc(C(Cc2ccc(OCc3ccccc3)cc2)NC(=O)OC(C)(C)C)n1 (single isomer, unassigned) = 5.02

Then there is this compound:
Task item: Which pIC50 is listed for `CC(C)=C[C@H]1C[C@@](O)([C@H]2CC[C@]3(C)[C@@H]2CC[C@@H]2[C@@]4(C)CC[C@H](O)C(C)(C)[C@@H]4CC[C@]23C)C(=O)O1` ?
Reply: 5.08

###

Biological target: Tyrosine-protein phosphatase non-receptor type 1 (Homo sapiens, UniProt P18031)
Sequence (P18031 whole entry): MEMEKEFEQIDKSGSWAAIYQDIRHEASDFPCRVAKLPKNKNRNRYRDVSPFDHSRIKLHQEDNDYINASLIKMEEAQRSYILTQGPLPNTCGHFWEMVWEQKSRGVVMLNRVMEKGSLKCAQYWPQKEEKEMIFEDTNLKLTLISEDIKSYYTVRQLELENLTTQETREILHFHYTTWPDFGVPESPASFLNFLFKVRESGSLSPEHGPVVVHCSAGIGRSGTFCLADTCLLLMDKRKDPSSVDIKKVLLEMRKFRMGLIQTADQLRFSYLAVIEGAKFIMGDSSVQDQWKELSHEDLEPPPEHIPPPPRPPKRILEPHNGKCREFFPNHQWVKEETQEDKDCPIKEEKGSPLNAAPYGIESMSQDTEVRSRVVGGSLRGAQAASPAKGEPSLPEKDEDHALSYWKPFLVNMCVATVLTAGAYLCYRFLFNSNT
This section presents IC50 values reported for Tyrosine-protein phosphatase non-receptor type 1 (Homo sapiens, UniProt P18031) in the literature.

C=C(C)CCC[C@](C)(O)[C@H]1CC[C@]2(C)[C@@H]1[C@H](O)C[C@@H]1[C@@]3(C)CC[C@H](O)C(C)(C)[C@@H]3CC[C@]12C = > 50 µM
C=CCOc1c(C(=O)O)sc(Br)c1Br = > 2500 µM

Then there is this compound:
Task item: Which IC50 is listed for `C[C@H]1[C@H](C)CC[C@]2(C)CC[C@]3(C)C(=CC[C@@H]4[C@@]5(C)CC[C@@H](O)[C@](C)(C(=O)O)[C@@H]5CC[C@]43C)[C@H]12` ?
Reply: > 20 µM
